Entry source: patent US20260365670A1

Tested on: Ba/F3 cells expressing EGFR mutations
Assay comment: Cell proliferation assay, Ba/F3 cells expressing EGFR mutations (CellTiter-Glo, 72 hours)
Format: cell-based
Study conditions: Mus musculus, BaF3, 72 h, BaF3 cells, EGFR L858R-T790M, CellTiter-Glo, read-out: L858R-T790M/BaF3 GI50
Measurement label: GI50 (nM)

Example compounds with recorded GI50:
>  <Compound>
Cn1ncc2c1OCCN1CC(CCC1(C)C)n1c(nc3ccc(N4CCOCC4)cc31)NC(=O)c1cc-2c(=O)n(C)c1 (stereo not shown)

>  <Quantitative readout>
116

$$$$
>  <Compound>
Cn1ncc2c1OCCN1CC3CCC(C3)(C1)n1c(nc3ccccc31)NC(=O)c1cc-2c(=O)n(C)c1 (stereo not shown) [Example A61B]

>  <Quantitative readout>
55

$$$$
>  <Compound>
C[C@@H]1CCCOc2c(cnn2C)-c2cc(cn(C)c2=O)C(=O)Nc2nc3ccc(N4CCOCC4)cc3n2C1

>  <Quantitative readout>
28

$$$$
>  <Compound>
Cn1ncc2c1OCCN1CC3CCC(CC3)(C1)n1c(nc3ccccc31)NC(=O)c1cc-2c(=O)n(C)c1

>  <Quantitative readout>
535

$$$$

[I] C[C@@H]1CCCOc2c(cnn2C)-c2cc(cn(C)c2=O)C(=O)Nc2nc3ccc(N4CC5(CN(C)CCO5)C4)cc3n2C1
[II] CN1CCN(c2ccc3nc4n(c3c2)C23CCC(CC2)CN(CCOc2c(cnn2C)-c2cc(cn(C)c2=O)C(=O)N4)C3)CC1
Input: Two entries are listed, I and II . Which one carries the higher GI50? // respond with label for picked entry
Output: II
(II: 69 nM, I: 17 nM)

---

Measured target: EGFR wild type (Homo sapiens)
Construct: purchased Carna Bio
Sequence (P00533 25-1210): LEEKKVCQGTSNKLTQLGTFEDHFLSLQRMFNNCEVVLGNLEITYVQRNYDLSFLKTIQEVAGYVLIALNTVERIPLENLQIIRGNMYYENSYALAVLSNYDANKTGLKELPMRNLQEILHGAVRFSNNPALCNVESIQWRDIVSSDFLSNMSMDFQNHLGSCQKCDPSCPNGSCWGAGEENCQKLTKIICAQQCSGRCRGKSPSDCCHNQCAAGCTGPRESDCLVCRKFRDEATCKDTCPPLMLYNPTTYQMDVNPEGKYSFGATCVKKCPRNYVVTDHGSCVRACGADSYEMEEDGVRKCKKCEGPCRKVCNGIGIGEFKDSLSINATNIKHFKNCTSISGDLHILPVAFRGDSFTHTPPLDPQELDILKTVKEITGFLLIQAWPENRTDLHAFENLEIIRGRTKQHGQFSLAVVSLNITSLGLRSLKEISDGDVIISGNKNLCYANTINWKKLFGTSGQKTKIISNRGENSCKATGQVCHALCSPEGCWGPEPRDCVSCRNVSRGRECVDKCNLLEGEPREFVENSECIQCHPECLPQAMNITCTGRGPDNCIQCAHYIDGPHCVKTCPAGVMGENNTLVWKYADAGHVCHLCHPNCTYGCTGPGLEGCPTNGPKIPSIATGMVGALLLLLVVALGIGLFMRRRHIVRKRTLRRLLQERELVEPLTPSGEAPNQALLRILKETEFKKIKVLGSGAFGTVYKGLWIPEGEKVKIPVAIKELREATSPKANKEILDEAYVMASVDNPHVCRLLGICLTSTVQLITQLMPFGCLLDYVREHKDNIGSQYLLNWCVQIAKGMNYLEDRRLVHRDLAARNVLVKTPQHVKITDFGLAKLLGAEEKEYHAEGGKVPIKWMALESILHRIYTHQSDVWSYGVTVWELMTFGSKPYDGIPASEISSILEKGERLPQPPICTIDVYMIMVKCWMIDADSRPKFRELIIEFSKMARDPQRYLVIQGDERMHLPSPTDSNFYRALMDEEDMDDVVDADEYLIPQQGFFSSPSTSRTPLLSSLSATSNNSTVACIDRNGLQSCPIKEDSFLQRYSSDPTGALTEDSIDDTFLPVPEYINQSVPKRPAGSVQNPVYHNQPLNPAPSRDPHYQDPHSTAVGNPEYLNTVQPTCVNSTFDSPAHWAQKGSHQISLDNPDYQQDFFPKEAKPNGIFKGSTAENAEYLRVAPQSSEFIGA
Assay comment: Inhibition of EGFR wild type biochemical enzymatic activity (HTRF)
Study conditions: EGFR WT, 1 mM ATP, 1 h, room temperature, read-out: IC50 (nM) @WT
Measurement label: IC50 (nM)

>  <Compound>
C[C@@H]1CCCOc2c(cnn2C)-c2cc(cn(C)c2=O)C(=O)Nc2nc3ccc(N4CC5(CCCN5C)C4)cc3n2C1

>  <Units text>
nM

>  <Quantitative readout>
236

$$$$
>  <Compound>
Cn1ncc2c1OCCN1CC3CCC(C3)(C1)n1c(nc3ccc(N4CCC(N5CC(F)C5)C4)cc31)NC(=O)c1cc-2c(=O)n(C)c1 (single isomer, unassigned) [Example A94B1]

>  <Units text>
nM

>  <Quantitative readout>
148

$$$$
>  <Compound>
C[C@@H]1CCCOc2c(cnn2C)-c2cc(cn(C)c2=O)C(=O)Nc2nc3ccc(N4CCC5(CC4)CCN5C)cc3n2C1

>  <Units text>
nM

>  <Quantitative readout>
54

$$$$

[1] Cn1ncc2c1OCCN1CC3CCC(C3)(C1)n1c(nc3ccccc31)NC(=O)c1cc-2c(=O)n(C)c1 (stereo not drawn) [Example A61B]
[2] Cn1ncc2c1OCCN1CC3CCC(C3)(C1)n1c(nc3ccc(N4CCN(C5CC5)CC4)cc31)NC(=O)c1cc-2c(=O)n(C)c1 (single isomer, unassigned) [Example A83B]
Input: Two entries are listed, 1 and 2 . Which one carries the higher IC50? // respond with label for picked entry
Output: 1
(1: 2420 nM, 2: 83 nM)

---

Measured target: EGFR[T790M/C797S/d746-750] (Homo sapiens, UniProt P00533, C797S/DEL746-750/T790M)
Construct: purchased Carna Bio
Sequence (P00533 with tags, fused parts or gaps DEL746-750/T790M/C797S limits assumed): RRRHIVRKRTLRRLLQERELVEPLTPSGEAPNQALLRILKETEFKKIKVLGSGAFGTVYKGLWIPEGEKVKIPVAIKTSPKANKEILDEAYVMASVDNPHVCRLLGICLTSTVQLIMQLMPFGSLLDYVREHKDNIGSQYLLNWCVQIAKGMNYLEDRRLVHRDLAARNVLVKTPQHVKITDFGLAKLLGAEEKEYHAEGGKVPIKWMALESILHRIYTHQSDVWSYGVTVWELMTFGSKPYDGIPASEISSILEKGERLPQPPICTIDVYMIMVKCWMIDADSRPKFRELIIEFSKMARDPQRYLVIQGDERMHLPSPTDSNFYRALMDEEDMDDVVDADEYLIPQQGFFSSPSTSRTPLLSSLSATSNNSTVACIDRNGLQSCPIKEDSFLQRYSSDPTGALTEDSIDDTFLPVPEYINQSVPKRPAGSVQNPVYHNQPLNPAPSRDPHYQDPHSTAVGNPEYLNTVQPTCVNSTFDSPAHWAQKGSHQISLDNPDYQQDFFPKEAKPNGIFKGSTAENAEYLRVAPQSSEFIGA
Assay comment: Inhibition of EGFR[T790M/C797S/d746-750] biochemical enzymatic activity (HTRF)
Study conditions: EGFR[T790M/C797S/d746-750], 1 mM ATP, 1 h at room temperature, read-out: IC50 @T790M - C797S - Del19
Measurement label: IC50 (nM)

Example molecules with recorded IC50:
>  <Molecule>
Cc1cc2cc(n1)-c1cnn(C)c1OCCN1CC3CCC(CC3)(C1)n1c(nc3ccc(N4CCN(C5CC5)CC4)cc31)NC2=O

>  <IC50 [nM]>
3.7

$$$$
>  <Molecule>
Cc1cc2cc(n1)-c1cnn(C)c1OCCN1CC3CCC(CC3)(C1)n1c(nc3ccc(N4CC[C@H](N(C)C)C4)cc31)NC2=O

>  <IC50 [nM]>
7.8

$$$$
>  <Molecule>
Cc1cc2cc(n1)-c1cnn(C)c1OCCN1CC3CCC(C3)(C1)n1c(nc3ccc(N4CCC5(CCN(C)CC5)C4)cc31)NC2=O (single isomer, unassigned) [Example B51B]

>  <IC50 [nM]>
3.4

$$$$
>  <Molecule>
Cc1cc2cc(n1)-c1cnn(C)c1OCCC[C@@H](C)Cn1c(nc3ccc4c(c31)CCN(CCN(C)C)C4)NC2=O

>  <IC50 [nM]>
2.6

$$$$
>  <Molecule>
Cc1cc2cc(n1)-c1cnn(C)c1OCCN1CC3CCC(C3)(C1)n1c(nc3ccc(N4CCC5(CCN(C)C5)CC4)cc31)NC2=O (single isomer, unassigned) [Example B52A]

>  <IC50 [nM]>
37

$$$$

[A] Cc1cc2cc(n1)-c1cnn(C)c1OCCN1CC3CCC(C3)(C1)n1c(nc3ccc(N(C)CCN(C)C)cc31)NC2=O (single isomer, unassigned) [Example B47B]
[B] Cc1cc2cc(n1)-c1cnn(C)c1OCCN1CC3CCC(CC3)(C1)n1c(nc3ccc(N4CCN(C(C)C)CC4)cc31)NC2=O
Input: Two entries are listed, A and B . Which one carries the higher IC50? // respond with label for picked entry
Output: B
(B: 3.3 nM, A: 1.9 nM)

[a] Cc1cc2cc(n1)-c1cnn(C)c1OCCN1CC3CCC(C3)(C1)n1c(nc3ccc(N4CCC(N5CCOCC5)C4)cc31)NC2=O (single isomer, unassigned) [Example B44B1]
[b] COCCN(C)c1ccc2nc3n(c2c1)C12CCC(CN(CCOc4c(cnn4C)-c4cc(cc(C)n4)C(=O)N3)C1)C2 (single isomer, unassigned) [Example B46B]
[c] Cc1cc2cc(n1)-c1cnn(C)c1OCCN1CC3CCC(C3)(C1)n1c(nc3ccc(N4CCOCC4)cc31)NC2=O (single isomer, unassigned) [Example B10B]
Input: Endpoint returns the given molecules ordered by ascending IC50. Quick reminder: the answer is the labels in the order asked.
Output: b, a, c
(b: 3.7 nM, a: 8.8 nM, c: 4040 nM)

---

Measured target: EGFR[T790M/C797S/L858R] (Homo sapiens, UniProt P00533, C797S/L858R/T790M)
Construct: purchased Carna Bio
Sequence (P00533 25-1210 T790M/C797S/L858R): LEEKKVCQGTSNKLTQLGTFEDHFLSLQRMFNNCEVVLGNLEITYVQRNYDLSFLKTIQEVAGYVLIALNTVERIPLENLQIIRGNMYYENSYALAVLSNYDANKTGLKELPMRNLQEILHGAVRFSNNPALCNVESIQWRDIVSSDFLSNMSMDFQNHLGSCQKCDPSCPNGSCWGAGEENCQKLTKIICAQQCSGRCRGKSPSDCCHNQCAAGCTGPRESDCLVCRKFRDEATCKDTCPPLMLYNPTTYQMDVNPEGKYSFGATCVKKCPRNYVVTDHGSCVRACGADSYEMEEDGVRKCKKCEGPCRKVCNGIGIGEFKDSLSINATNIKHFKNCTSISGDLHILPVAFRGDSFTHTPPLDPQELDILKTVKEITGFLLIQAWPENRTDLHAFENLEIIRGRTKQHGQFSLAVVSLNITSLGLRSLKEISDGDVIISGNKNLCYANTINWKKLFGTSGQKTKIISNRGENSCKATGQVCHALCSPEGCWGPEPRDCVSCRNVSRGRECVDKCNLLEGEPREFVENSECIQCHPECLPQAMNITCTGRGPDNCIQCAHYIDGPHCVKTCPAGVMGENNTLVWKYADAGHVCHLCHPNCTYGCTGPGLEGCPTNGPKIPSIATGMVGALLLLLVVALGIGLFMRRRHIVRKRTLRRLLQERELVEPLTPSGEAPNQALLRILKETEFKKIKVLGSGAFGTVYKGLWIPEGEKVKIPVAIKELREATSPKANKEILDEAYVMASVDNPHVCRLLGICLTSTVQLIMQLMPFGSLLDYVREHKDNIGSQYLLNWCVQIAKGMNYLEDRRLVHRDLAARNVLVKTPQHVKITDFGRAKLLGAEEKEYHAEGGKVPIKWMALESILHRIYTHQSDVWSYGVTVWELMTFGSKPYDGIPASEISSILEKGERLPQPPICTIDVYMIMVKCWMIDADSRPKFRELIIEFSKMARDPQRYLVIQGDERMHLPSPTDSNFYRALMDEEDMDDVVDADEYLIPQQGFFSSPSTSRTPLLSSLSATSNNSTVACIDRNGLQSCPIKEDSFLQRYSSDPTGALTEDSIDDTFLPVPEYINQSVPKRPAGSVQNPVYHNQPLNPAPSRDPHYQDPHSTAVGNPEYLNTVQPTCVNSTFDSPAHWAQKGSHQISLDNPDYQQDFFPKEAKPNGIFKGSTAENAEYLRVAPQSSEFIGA
Assay comment: Inhibition of EGFR[T790M/C797S/L858R] biochemical enzymatic activity (HTRF)
Study conditions: EGFR[T790M/C797S/L858R], 1 mM ATP, 1 h at room temperature, read-out: IC50 @T790M- C797S - L858R
Measurement label: IC50 (nM)

[a] Cc1cc2cc(n1)-c1cnn(C)c1OCCN1CC3CCC(CC3)(C1)n1c(nc3ccc(N4CCC5(CCN(C)CC5)C4)cc31)NC2=O [Example B38]
[b] Cc1cc2cc(n1)-c1cnn(C)c1OCCCCCn1c(nc3ccc4c(c31)CCNC4)NC2=O
[c] Cc1cc2cc(n1)-c1cnn(C)c1OCCN1CC3CCC(C3)(C1)n1c(nc3ccc(N4CC5CC4CN5C)cc31)NC2=O (single isomer, unassigned) [Example B53B]
Input: Kindly provide a descending ordering of the above compounds based on their IC50. Quick reminder: the answer is the labels in the order asked.
Output: b, a, c

---

Measured target: EGFR L858R (Homo sapiens, UniProt P00533, L858R)
Construct: purchased Carna Bio
Sequence (P00533 25-1210 L858R): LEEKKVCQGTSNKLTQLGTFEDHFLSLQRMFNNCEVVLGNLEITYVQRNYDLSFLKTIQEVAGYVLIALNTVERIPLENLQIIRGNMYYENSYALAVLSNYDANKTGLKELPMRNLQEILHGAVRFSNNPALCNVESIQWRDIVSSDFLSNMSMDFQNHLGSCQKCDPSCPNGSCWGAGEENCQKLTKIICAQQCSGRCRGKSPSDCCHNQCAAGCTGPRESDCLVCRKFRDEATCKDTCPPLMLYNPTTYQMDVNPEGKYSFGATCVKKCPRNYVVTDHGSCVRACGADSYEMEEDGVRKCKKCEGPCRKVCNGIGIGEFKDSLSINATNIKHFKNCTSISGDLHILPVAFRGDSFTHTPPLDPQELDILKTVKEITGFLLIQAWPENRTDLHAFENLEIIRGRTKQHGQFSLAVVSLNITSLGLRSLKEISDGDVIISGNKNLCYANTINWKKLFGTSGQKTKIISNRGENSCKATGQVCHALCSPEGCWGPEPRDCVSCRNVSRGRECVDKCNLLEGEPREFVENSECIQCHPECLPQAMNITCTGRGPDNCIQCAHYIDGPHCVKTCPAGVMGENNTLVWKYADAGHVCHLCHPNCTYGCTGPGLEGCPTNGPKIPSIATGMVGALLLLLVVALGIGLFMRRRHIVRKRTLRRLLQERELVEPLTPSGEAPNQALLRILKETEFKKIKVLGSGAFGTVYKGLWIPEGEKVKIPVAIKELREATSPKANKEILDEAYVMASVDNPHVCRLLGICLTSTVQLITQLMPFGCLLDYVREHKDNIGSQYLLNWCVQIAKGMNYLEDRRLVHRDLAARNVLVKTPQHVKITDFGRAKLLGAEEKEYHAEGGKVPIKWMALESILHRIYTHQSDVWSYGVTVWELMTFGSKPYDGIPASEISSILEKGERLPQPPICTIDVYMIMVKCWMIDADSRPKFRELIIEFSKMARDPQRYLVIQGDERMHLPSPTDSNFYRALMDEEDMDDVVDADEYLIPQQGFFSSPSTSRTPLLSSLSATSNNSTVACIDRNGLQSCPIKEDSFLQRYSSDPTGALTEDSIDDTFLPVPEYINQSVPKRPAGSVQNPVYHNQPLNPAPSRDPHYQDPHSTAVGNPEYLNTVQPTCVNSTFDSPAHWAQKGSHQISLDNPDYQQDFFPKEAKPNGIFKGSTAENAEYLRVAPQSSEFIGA
Assay comment: Inhibition of EGFR L858R biochemical enzymatic activity (HTRF)
Study conditions: 1 mM ATP, 1 h, room temperature, read-out: IC50 (nM) @L858R
Measurement label: IC50 (nM)

>  <Molecule>
C[C@@H]1CCCOc2c(cnn2C)-c2cc(cn(C)c2=O)C(=O)Nc2nc3ccc(N4CCN(C)CC4)cc3n2C1 [Example A25]

>  <IC50, nM>
24

$$$$
>  <Molecule>
CCN1CCN(c2ccc3nc4n(c3c2)C23CCC(CN(CCOc5c(cnn5C)-c5cc(cn(C)c5=O)C(=O)N4)C2)C3)CC1 (single isomer, unassigned) [Example A107B]

>  <IC50, nM>
3

$$$$

[I] CN1CCOC2(C1)CN(c1ccc3nc4n(c3c1)C13CCC(CN(CCOc5c(cnn5C)-c5cc(cn(C)c5=O)C(=O)N4)C1)C3)C2 (single isomer, unassigned) [Example A86B]
[II] C[C@@H]1CCCOc2c(cnn2C)-c2cc(cn(C)c2=O)C(=O)Nc2nc3ccc(N4CCC5(CC4)CCN5C)cc3n2C1 [Example A52]
[III] Cn1ncc2c1OCCN1CC3CCC(C3)(C1)n1c(nc3ccc(N4CCC(N5CCOCC5)C4)cc31)NC(=O)c1cc-2c(=O)n(C)c1 (single isomer, unassigned) [Example A104A]
Input: Endpoint returns the given molecules ordered by ascending IC50. Quick reminder: the answer is the labels in the order asked.
Output: II, I, III
